- experimental target: JAK-3 (Homo sapiens (Human), UniProt P52333)
- Sequence (P52333 whole entry): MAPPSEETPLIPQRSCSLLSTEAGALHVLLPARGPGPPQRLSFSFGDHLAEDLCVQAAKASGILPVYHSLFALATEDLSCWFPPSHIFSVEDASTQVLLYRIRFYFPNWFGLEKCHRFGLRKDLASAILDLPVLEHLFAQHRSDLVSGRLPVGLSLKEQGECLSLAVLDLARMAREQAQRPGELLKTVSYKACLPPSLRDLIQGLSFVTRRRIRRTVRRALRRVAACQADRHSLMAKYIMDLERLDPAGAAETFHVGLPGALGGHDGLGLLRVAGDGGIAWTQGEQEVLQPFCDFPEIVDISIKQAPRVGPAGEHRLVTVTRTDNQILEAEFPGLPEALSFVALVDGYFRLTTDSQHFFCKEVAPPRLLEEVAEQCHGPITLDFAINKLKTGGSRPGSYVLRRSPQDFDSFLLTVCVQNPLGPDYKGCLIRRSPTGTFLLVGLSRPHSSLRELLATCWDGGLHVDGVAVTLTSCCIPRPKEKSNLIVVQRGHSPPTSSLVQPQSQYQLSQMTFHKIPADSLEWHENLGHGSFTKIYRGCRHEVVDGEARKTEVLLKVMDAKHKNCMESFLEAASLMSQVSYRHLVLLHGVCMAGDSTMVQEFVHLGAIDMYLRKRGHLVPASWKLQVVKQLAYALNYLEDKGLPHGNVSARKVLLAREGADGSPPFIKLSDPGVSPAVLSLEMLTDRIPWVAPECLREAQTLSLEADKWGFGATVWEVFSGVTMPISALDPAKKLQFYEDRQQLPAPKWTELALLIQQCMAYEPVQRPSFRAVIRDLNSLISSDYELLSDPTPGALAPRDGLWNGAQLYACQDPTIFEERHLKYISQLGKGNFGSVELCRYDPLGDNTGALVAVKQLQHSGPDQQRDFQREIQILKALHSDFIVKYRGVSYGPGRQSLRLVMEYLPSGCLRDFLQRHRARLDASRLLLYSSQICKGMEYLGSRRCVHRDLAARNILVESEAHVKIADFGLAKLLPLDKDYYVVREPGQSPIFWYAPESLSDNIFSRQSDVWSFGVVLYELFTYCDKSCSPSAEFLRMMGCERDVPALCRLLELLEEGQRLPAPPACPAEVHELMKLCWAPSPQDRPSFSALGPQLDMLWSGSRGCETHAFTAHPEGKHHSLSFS
- assay protocol: Inhibition test on JAK-3 kinase (FRET peptide substrate assay)
- Assay type: biochemical
- assay context: kinase 1 nM, 1 h at room temperature; read-out: IC50 (nM) JAK-3
reported property: IC50 (nM)

These recorded examples may help you get a feel for the data.
{"molecule": "C=CC(=O)Nc1cccc(Cn2ncc3cnc(Nc4cnn(C)c4)nc32)c1 [Example 2]", "IC50 / nM": 2.2}
{"molecule": "C=CC(=O)Nc1ccc(Cn2ncc3cnc(Nc4ccc(F)cc4)nc32)cc1 [Example 19]", "IC50 / nM": 3.7}
{"molecule": "C=CC(=O)Nc1ccc(Cn2ncc3cnc(Nc4cnn(CCOC)c4)nc32)cc1 [Example 15]", "IC50 / nM": 0.5}
{"molecule": "C/C=C/C(=O)Nc1cccc(Cn2ncc3cnc(Nc4ccc(F)cc4)nc32)c1 [Example 12]", "IC50 / nM": 0.2}

a = C/C=C/C(=O)Nc1ccc(Cn2ncc3cnc(Nc4cnn(CCO)c4)nc32)cc1 [Example 24]
b = C/C=C/C(=O)Nc1cccc(Cn2ncc3cnc(Nc4cnn(CCO)c4)nc32)c1 [Example 10]
c = C=CC(=O)Nc1cccc(Cn2ncc3cnc(Nc4ccc(F)cc4)nc32)c1 [Example 5]
d = C/C=C/C(=O)Nc1ccc(Cn2ncc3cnc(Nc4cnn(C)c4)nc32)cc1 [Example 23]
e = C=CC(=O)Nc1ccc(Cn2ncc3cnc(Nc4cnn(C)c4)nc32)cc1 [Example 16]
Task: # rank_down: sort by IC50, max first Write the labels out in the order the request specifies.
Result: c, e, b, a, d
(c: 3.7 nM, e: 1.4 nM, b: 0.7 nM, a: 0.2 nM, d: 0.1 nM)
